# credit: the supplement of paper PMC10567573

B1: ZNF649 (parent)
chain: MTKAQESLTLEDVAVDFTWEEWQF

Variants of: B1
Test: protein stability index of a GFP-peptide fusion (GPS, HEK-293T) (PSI 1-6); higher = more stable;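 further: lentivirally expressed fusions sorted by FACS into six bins by GFP to DsRed ratio, PSI derived from sequencing read proportions per bin multiplied by bin number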
Conditions: c terminus: a fixed tail appended
Kindly return yes (1) if reported protein stability index is no lower than 4; return no (0) if it is lower.

CHAIN | CLASS ASSIGNMENT
MTKAQESLTLEDVAVDMTWEEWQF [F17M] | yes (1)
MCKAQESLTLEDVAVDFTWEEWQF [T2C] | no (0)
MTKAQRSLTLEDVAVDFTWEEWQF [E6R] | no (0)
MTKAQESCTLEDVAVDFTWEEWQF [L8C] | no (0)
MTKGQESLTLEDVAVDFTWEEWQF [A4G] | no (0)

Determine whether this variant has protein stability index no lower than 4: VTKAQESLTLEDVAVDFTWEEWQF [M1V]
no (0)

Determine whether this variant has protein stability index no lower than 4: MTKAQESLTLEDVAVDNTWEEWQF [F17N]
no (0)

Determine whether this variant has protein stability index no lower than 4: MTKAQESLTQEDVAVDFTWEEWQF [L10Q]
yes (1)
